# credit: BigSolDB 2.1

# experimental_setup: in ethyl acetate, 318.15 K
property_name: solubility (mole fraction)

Which measured solubility (mole fraction) value corresponds to O=C(O)Cc1ccc([N+](=O)[O-])cc1 ?
0.098

###

# experimental_setup: in isopropanol, 323.15 K
property_name: solubility (mole fraction)

Data request, read-out solubility (mole fraction), for O=C(O)Cc1ccc([N+](=O)[O-])cc1
0.109

###

# experimental_setup: in n-propanol, 293.15 K
property_name: solubility (mole fraction)
Just the number, please, no unit attached.

Report solubility (mole fraction) for O=C(O)Cc1ccc([N+](=O)[O-])cc1 please.
0.0683

###

# experimental_setup: in DMF, 283.15 K
property_name: solubility (mole fraction)

Entry under review: O=C(O)Cc1ccc([N+](=O)[O-])cc1 . Reported solubility (mole fraction)?
0.161

###

# experimental_setup: in isopropanol, 303.15 K
property_name: solubility (mole fraction)
Respond with the number and no other words.

For the compound shown here, O=C(O)Cc1ccc([N+](=O)[O-])cc1 , give the reported solubility (mole fraction).
0.0542

###

# experimental_setup: in isobutanol, 288.15 K
property_name: solubility (mole fraction)
Reply with the value as a number alone.

Consider the molecule O=C(O)Cc1ccc([N+](=O)[O-])cc1 and give its measured solubility (mole fraction).
0.0282

###

# experimental_setup: in isopropanol, 328.15 K
property_name: solubility (mole fraction)
Hey, just send me the number, nothing else.

solubility (mole fraction) for O=C(O)Cc1ccc([N+](=O)[O-])cc1 ?
0.131

###

# experimental_setup: in n-propanol, 323.15 K
property_name: solubility (mole fraction)
Just the number, please.

Looking for the measured solubility (mole fraction) of O=C(O)Cc1ccc([N+](=O)[O-])cc1 , can you help?
0.168

###

# experimental_setup: in acetonitrile, 313.15 K
property_name: solubility (mole fraction)

Tell me the measured solubility (mole fraction) of O=C(O)Cc1ccc([N+](=O)[O-])cc1 , please.
0.0535

###

# experimental_setup: in DMF, 323.15 K
property_name: solubility (mole fraction)
Number only, no unit.

Need solubility (mole fraction), item O=C(O)Cc1ccc([N+](=O)[O-])cc1
0.377

###

# experimental_setup: in ethyl acetate, 308.15 K
property_name: solubility (mole fraction)
I'd appreciate a reply containing only the number, no unit.

Item under review: O=C(O)Cc1ccc([N+](=O)[O-])cc1 . Reported solubility (mole fraction)?
0.0694

###

# experimental_setup: in n-butanol, 323.15 K
property_name: solubility (mole fraction)

// lookup solubility (mole fraction) for O=C(O)Cc1ccc([N+](=O)[O-])cc1
0.156

###

# experimental_setup: in acetonitrile, 328.15 K
property_name: solubility (mole fraction)
Form rule: numeric answer, no unit written next to it.

Entry O=C(O)Cc1ccc([N+](=O)[O-])cc1 : reported solubility (mole fraction) = ?
0.0918

###

# experimental_setup: in acetonitrile, 318.15 K
property_name: solubility (mole fraction)
Form: value (number only, do not type unit).

Record request: solubility (mole fraction) value, item O=C(O)Cc1ccc([N+](=O)[O-])cc1
0.0639

###

# experimental_setup: in ethanol, 328.15 K
property_name: solubility (mole fraction)
Could you respond with only the numeric value?

Would you kindly share the measured solubility (mole fraction) for O=C(O)Cc1ccc([N+](=O)[O-])cc1 ?
0.254

###

# experimental_setup: in water, 323.15 K
property_name: solubility (mole fraction)
The reply should be a number, written without any unit.

solubility (mole fraction) lookup needed for O=C(O)Cc1ccc([N+](=O)[O-])cc1 , thanks.
0.000816

###

# experimental_setup: in cyclohexane, 308.15 K
property_name: solubility (mole fraction)
Enter the number alone.

# solubility (mole fraction) lookup, item O=C(O)Cc1ccc([N+](=O)[O-])cc1
5.45e-05

###

# experimental_setup: in n-propanol, 308.15 K
property_name: solubility (mole fraction)

Bench note: what solubility (mole fraction) did O=C(O)Cc1ccc([N+](=O)[O-])cc1 show?
0.106

###

# experimental_setup: in isobutanol, 308.15 K
property_name: solubility (mole fraction)
Please reply with the number alone, leaving off any unit.

Would you kindly share the measured solubility (mole fraction) for O=C(O)Cc1ccc([N+](=O)[O-])cc1 ?
0.0554

###

# experimental_setup: in DMAc, 303.15 K
property_name: solubility (mole fraction)
Form field (numeric): enter value without unit.

Tell me the measured solubility (mole fraction) of O=C(O)Cc1ccc([N+](=O)[O-])cc1 , please.
0.149

###

# experimental_setup: in water, 293.15 K
property_name: solubility (mole fraction)
Lab note: record just the number, no unit beside it.

So what does the record say about solubility (mole fraction) for O=C(O)Cc1ccc([N+](=O)[O-])cc1 ?
0.000209

###

# experimental_setup: in ethanol, 308.15 K
property_name: solubility (mole fraction)
No unit in the answer, only the number.

Suppose we examine the compound O=C(O)Cc1ccc([N+](=O)[O-])cc1 ; what solubility (mole fraction) value has been reported?
0.148

###

# experimental_setup: in cyclohexane, 313.15 K
property_name: solubility (mole fraction)
// return a plain number; no unit text

I have this molecule here, O=C(O)Cc1ccc([N+](=O)[O-])cc1 , and I need its recorded solubility (mole fraction).
7.11e-05

###

# experimental_setup: in methanol, 328.15 K
property_name: solubility (mole fraction)
// no unit string in output, number only

May I ask what solubility (mole fraction) has been recorded for O=C(O)Cc1ccc([N+](=O)[O-])cc1 ?
0.341

###

# experimental_setup: in water, 298.15 K
property_name: solubility (mole fraction)
Simply state the number, no unit and no words.

Dear colleague, I am looking for the recorded solubility (mole fraction) of the following molecule: O=C(O)Cc1ccc([N+](=O)[O-])cc1
0.000264

###

# experimental_setup: in ethanol, 303.15 K
property_name: solubility (mole fraction)

Bench note: what solubility (mole fraction) did O=C(O)Cc1ccc([N+](=O)[O-])cc1 show?
0.128

###

# experimental_setup: in ethanol, 293.15 K
property_name: solubility (mole fraction)
Lab note: jot the number down without any unit.

Quick one: solubility (mole fraction) for O=C(O)Cc1ccc([N+](=O)[O-])cc1 ?
0.0979

###

# experimental_setup: in n-butanol, 298.15 K
property_name: solubility (mole fraction)
No unit in the answer, please; the number alone is enough.

Suppose we examine the compound O=C(O)Cc1ccc([N+](=O)[O-])cc1 ; what solubility (mole fraction) value has been reported?
0.0758

###

# experimental_setup: in DMF, 303.15 K
property_name: solubility (mole fraction)
// no unit string in output, number only

Endpoint output: solubility (mole fraction) of O=C(O)Cc1ccc([N+](=O)[O-])cc1 . Value?
0.251

###

# experimental_setup: in DMF, 313.15 K
property_name: solubility (mole fraction)
// print number alone

So what's the measured solubility (mole fraction) for this one? O=C(O)Cc1ccc([N+](=O)[O-])cc1
0.311

###

# experimental_setup: in DMAc, 283.15 K
property_name: solubility (mole fraction)
// response body must contain only the number

Need solubility (mole fraction), item O=C(O)Cc1ccc([N+](=O)[O-])cc1
0.0895

###

# experimental_setup: in ethylene glycol, 308.15 K
property_name: solubility (mole fraction)

Would you mind telling me what solubility (mole fraction) value was observed for O=C(O)Cc1ccc([N+](=O)[O-])cc1 ?
0.0361

###

# experimental_setup: in cyclohexane, 283.15 K
property_name: solubility (mole fraction)
# respond with the number and nothing more

Fill in the blank: the reported solubility (mole fraction) of O=C(O)Cc1ccc([N+](=O)[O-])cc1 is ____.
1.2e-05

###

# experimental_setup: in methanol, 313.15 K
property_name: solubility (mole fraction)
Give only the figure.

Look up solubility (mole fraction) for this molecule: O=C(O)Cc1ccc([N+](=O)[O-])cc1
0.245

###

# experimental_setup: in methanol, 323.15 K
property_name: solubility (mole fraction)

# solubility (mole fraction) lookup, item O=C(O)Cc1ccc([N+](=O)[O-])cc1
0.305

###

# experimental_setup: in ethanol, 323.15 K
property_name: solubility (mole fraction)
Output spec: single numeric token, no unit.

Data request, read-out solubility (mole fraction), for O=C(O)Cc1ccc([N+](=O)[O-])cc1
0.223

###

# experimental_setup: in methanol, 298.15 K
property_name: solubility (mole fraction)
Reply: number alone, nothing else.

Give the measured solubility (mole fraction) of O=C(O)Cc1ccc([N+](=O)[O-])cc1 .
0.174

###

# experimental_setup: in ethyl acetate, 298.15 K
property_name: solubility (mole fraction)
Number, no unit, nothing else.

So what does the record say about solubility (mole fraction) for O=C(O)Cc1ccc([N+](=O)[O-])cc1 ?
0.0487

###

# experimental_setup: in acetonitrile, 293.15 K
property_name: solubility (mole fraction)
Give the value as a plain number.

Requested field: solubility (mole fraction). Item: O=C(O)Cc1ccc([N+](=O)[O-])cc1
0.0266

###

# experimental_setup: in cyclohexane, 318.15 K
property_name: solubility (mole fraction)
Could you respond with only the numeric value?

Consider the compound shown here: O=C(O)Cc1ccc([N+](=O)[O-])cc1 What is its recorded solubility (mole fraction)?
9e-05
